- assay.protocol: Pharmacokinetics in male SD rats (cassette dosing, IV and PO), plasma level by LC/MS/MS
- Format: in vivo
- setup.conditions: male SD rat, IV 1 mg/kg, read-out: IV AUC
- Experimental: Male SD rats were fasted overnight. Compounds of the invention were dissolved in dimethyl acetamide at 10 times the final concentration, then Solutol HS 15 (BASF) was added to a final concentration of 10%. […] The plasma was extracted with acetonitrile and the level of compound was analyzed by LC/MS/MS. The level of compound in plasma was calculated from a standard curve in rat plasma. The IV clearance (L/h/kg) and area under the curve (h*ng/mL) were calculated using WinNonLin software. […]
Assignment: determine reported AUC for the given molecules.

In the examples that follow, each entry is paired with its recorded AUC.
• COCCNc1ccc2cc(C(=O)Nc3cc(-c4cccs4)ccc3N)cnc2c1 = 20 to 25 ng·h/mL
• CN(C)CCNc1ccc2cc(C(=O)Nc3cc(-c4cccs4)ccc3N)ncc2c1 = 20 to 25 ng·h/mL

Below are 2 molecules. Give each one its AUC.
1. CN1C(=O)Cc2cc(C(=O)Nc3cc(-c4ccccc4)ccc3N)ccc21
2. Nc1ccc(-c2ccccc2)cc1NC(=O)c1ccc2c(c1)CC(=O)N2CCN1CCOCC1

Output:
1: 29800 to 30000 ng·h/mL; 2: 2700 to 2800 ng·h/mL

* * *

- assay.protocol: Pharmacokinetics in male SD rats (cassette dosing, IV and PO), plasma level by LC/MS/MS
- Format: in vivo
- setup.conditions: male SD rat, IV 1 mg/kg, read-out: IV t1/2
observed.property: half-life

Here is how some compounds turned out for half-life.
- Nc1ccc(-c2cccs2)cc1NC(=O)c1ccc2[nH]c(C3CC3)nc2c1: 15 to 20 h
- Nc1ccc(-c2ccccc2)cc1NC(=O)c1ccc2c(c1)CC(=O)N2CC1CC1: 1 to 5 h

Now for another entry.
Task: Which value of half-life has been reported for `Nc1ccc(-c2cccs2)cc1NC(=O)c1ccc2c(c1)CC(=O)N2CCN1CCOCC1` in the records?
Output: 5 to 10 h

* * *

These records show pIC50 for HDAC1 (Homo sapiens).
pIC50: −log10 of the molar value.

* CN1C(=O)Cc2cc(C(=O)Nc3cc(-c4cccs4)ccc3N)ccc21 | 8.00 to 8.30
* Nc1ccc(-c2cccs2)cc1NC(=O)c1ccc2c(c1)CC(=O)N2CCN1CCOCC1 | 8.00 to 9.00
* Nc1ccc(-c2cccs2)cc1NC(=O)c1ccc2c(c1)CC(=O)N2CC1CC1 | 7.82 to 8.00
* CN(C)CCNc1ccc2cc(C(=O)Nc3cc(-c4cccs4)ccc3N)ncc2c1 | > 8.30
* CN1C(=O)Cc2cc(C(=O)Nc3cc(-c4ccccc4)ccc3N)ccc21 | 7.46 to 7.60
* Cn1cnc2ccc(C(=O)Nc3cc(-c4cccs4)ccc3N)cc21 | 6.42 to 6.43
* COCCN(C)c1ccc2cc(C(=O)Nc3cc(-c4cccs4)ccc3N)cnc2c1 | 7.26 to 7.30
* COCCNc1ccc2cc(C(=O)Nc3cc(-c4cccs4)ccc3N)cnc2c1 | 7.60 to 7.82

Batch of 3 molecules: report pIC50 for each.
1. Nc1ccc(-c2cccs2)cc1NC(=O)c1ccc2c(c1)ncn2CCN1CCOCC1
2. Nc1ccc(-c2ccccc2)cc1NC(=O)c1ccc2ncn(CCN3CCOCC3)c2c1
3. CN1C(=O)Cc2cc(C(=O)Nc3cc(-c4ccco4)ccc3N)ccc21

Output:
["8.00 to 8.30", "6.19 to 6.20", "7.60 to 7.82"]

FYI, the data here is from patent US11858919B2.
